Test system: LXRb homodimer (NR concentration 270 nM)
procedure_text: PBM binding z-score (relative to random genomic background probes); higher = stronger binding; sequences stand for … in GC…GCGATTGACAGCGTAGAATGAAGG
Decide using PBM binding z-score: a value greater than or equal to -0.2 is criterion met, a smaller one is criterion not met.

# count of solved cases: 5
ATCTCTAGGTAATAGTTCAGTGAATCCCGAGGAT
criterion met
ATCTCTAGGTAAAGTCCAGTGAAAGATCGATAGA
criterion met
CGTGCTAGGTCAATGGTCAGCTAAAGCAGCTCGC
criterion met
CCTCCTAGGTCAATGGTCAGCTAAAGCAGCTCGC
criterion met
TCTAGTTGGTCACGGAGGTCACACAAGACGGGTA
criterion met

Has `AGTCAAAGTTCATCTAGGGAACGTAAGATATGCT` a recorded PBM binding z-score greater than or equal to -0.2? criterion met

Request: `CCTGGTAGGTCAATGGTCAGCTAAAGCAGCTCGC` criterion met

Request: `ATCGAAAGGGCGAAGGTGAGTATACCCACCCGAA` criterion met

Request: `ATCTCTAGGTAACCAAGTTCAGTGAATGCCGAAC` criterion met

Request: `ATCGAAAGATCGAGGTGAGTATAGAGAAAGGGAA` criterion not met

Request: `CGCCAAAGTTCAAGGTAACGTAACAGAAAGCAGC` criterion met
